Biological target: TAK1-TAB1 fusion protein (Homo sapiens, UniProt O43318)
Construct: purchased Carna
Sequence (O43318 with tags, fused parts or gaps limits assumed): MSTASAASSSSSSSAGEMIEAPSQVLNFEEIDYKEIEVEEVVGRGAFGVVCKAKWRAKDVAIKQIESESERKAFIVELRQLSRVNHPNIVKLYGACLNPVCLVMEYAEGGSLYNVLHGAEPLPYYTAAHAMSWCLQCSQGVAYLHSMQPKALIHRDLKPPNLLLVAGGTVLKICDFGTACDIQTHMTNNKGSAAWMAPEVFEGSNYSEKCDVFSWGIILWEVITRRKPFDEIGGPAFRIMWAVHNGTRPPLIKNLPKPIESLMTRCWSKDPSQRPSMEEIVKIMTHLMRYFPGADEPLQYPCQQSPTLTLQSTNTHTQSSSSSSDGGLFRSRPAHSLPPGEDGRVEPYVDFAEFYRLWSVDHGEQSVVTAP
Test: TAK1 biochemical assay (AlphaScreen, GST-MAP2K7 substrate)
Conditions: TAK1-TAB1 fusion protein, GST-MAP2K7 substrate; read-out: mean TAK1 IC50 (Col. A)
Where a name gives a salt, the structure may show the parent alone.

Compound | IC50
CC(=O)N1CCC(n2cc(-c3cnc(N)c4oc(-c5csc6cnc(Cl)cc56)cc34)cn2)CC1 [Example 246, bis(trifluoroacetate)] | 0.1 to 1 µM
Nc1ncc(-c2cnn(C3CCNCC3)c2)c2cc(-c3ccc4cc[nH]c4c3)oc12 [Example 29] | 1 to 10 µM
Nc1ncc(-c2cnn(C3CCNCC3)c2)c2cc(-c3cccc4cnccc34)oc12 [Example 33] | 0.1 to 1 µM
CC(=O)N1CCC(n2cc(-c3cnc(N)c4oc(-c5cccc(OCC(C)C)c5)cc34)cn2)CC1 [Example 204] | > 10 µM
CC(=O)N1CCC(n2cc(-c3cnc(N)c4oc(-c5c(-c6ccccc6)sc6cnccc56)cc34)cn2)CC1 [Example 263, trifluoroacetate] | 0.1 to 1 µM
CSc1nc2cccc(-c3cc4c(-c5cnn([C@H]6CC[C@H](O)CC6)c5)cnc(N)c4o3)c2s1 [Example 353, Trifluoroacetate] | 1 to 10 µM
CCC(C)Oc1cccc(-c2cc3c(-c4cnn(C5CCN(C(C)=O)CC5)c4)cnc(N)c3o2)c1 (centres unmarked) [Example 210] | > 10 µM
CN(C)S(=O)(=O)Nc1cccc(-c2cc3c(-c4cnn(C5CCNCC5)c4)cnc(N)c3o2)c1 [Example 24] | 1 to 10 µM
Nc1ncc(-c2cnn([C@H]3CC[C@H](O)CC3)c2)c2cc(-c3c(-c4cccc(F)c4)ccc4cnsc34)oc12 [Example 356] | > 10 µM
CC(=O)N1CCC(n2cc(-c3cnc(N)c4oc(-c5cccc(-c6ccccc6)c5)cc34)cn2)CC1 [Example 160] | 1 to 10 µM
Cn1cc(-c2cnc(N)c3oc(-c4c[nH]c5cnccc45)cc23)cn1 [Example 88, trifluoroacetic acid salt] | < 0.1 µM
CCOc1cc2c(-c3cc4c(-c5cnn(C6CCN(C(C)=O)CC6)c5)cnc(N)c4o3)csc2cn1 [Example 245, bis(trifluoroacetate)] | 0.1 to 1 µM
CC(=O)N1CCC(n2cc(-c3cnc(N)c4oc(-c5cnc6ccccc6c5)cc34)cn2)CC1 [Example 168] | 1 to 10 µM
CC(=O)N1CCC(n2cc(-c3cnc(N)c4oc(-c5ccnc6ccccc56)cc34)cn2)CC1 [Example 175] | 0.1 to 1 µM
COCCCn1cc(-c2cnc(N)c3oc(-c4csc5cnccc45)cc23)cn1 [Example 342] | 0.1 to 1 µM
CCNc1nc2cccc(-c3cc4c(-c5cnn(C6CCN(C(C)=O)CC6)c5)cnc(N)c4o3)c2s1 [Example 354, trifluoroacetate] | < 0.1 µM
CC(=O)N1CCC(n2cc(-c3cnc(N)c4oc(-c5csc6cnncc56)cc34)cn2)CC1 [Example 261, diformate] | < 0.1 µM
CC(=O)N1CCC(n2cc(-c3cnc(N)c4oc(C5=CCCC5)cc34)cn2)CC1 [Example 153] | 1 to 10 µM
Nc1ncc(-c2ccc(-c3ccccc3)s2)c2cc(-c3csc4cnccc34)oc12 [Example 385] | > 10 µM
CC(=O)N1CCC(n2cc(-c3cnc(N)c4oc(-c5coc6ccccc56)cc34)cn2)CC1 [Example 220, bis(trifluoroacetate)] | 1 to 10 µM
Nc1ncc(-c2cnn([C@@H]3CCC[C@@H](O)C3)c2)c2cc(-c3csc4cnccc34)oc12 (relative stereo) [Example 309] | < 0.1 µM
CNc1ncc(-c2cnn([C@H]3CC[C@H](O)CC3)c2)c2cc(-c3csc4cnccc34)oc12 [Example 281] | < 0.1 µM
Nc1ncc(-c2cnn([C@@H]3C[C@H]4CC[C@@H](C3)N4C=O)c2)c2cc(-c3cccc4cnsc34)oc12 [Example 326] | < 0.1 µM
CC(=O)N1CCC(n2cc(-c3cnc(N)c4oc(-c5ccc(Cl)c(C(=O)O)c5)cc34)cn2)CC1 [Example 110, hydrochloride] | 1 to 10 µM
Nc1ncc(-c2cnn(C3CCNCC3)c2)c2cc(-c3cccc4cn[nH]c34)oc12 [Example 45] | 0.1 to 1 µM
CC(=O)N1CCC(n2cc(-c3cnc(N)c4oc(-c5cccc6[nH]ccc56)cc34)cn2)CC1 [Example 176] | < 0.1 µM
N#Cc1ccc2cnsc2c1-c1cc2c(-c3cnn([C@H]4CC[C@H](O)CC4)c3)cnc(N)c2o1 [Example 372] | 1 to 10 µM
Nc1ncc(-c2cnn(C3CCNCC3)c2)c2cc(-c3ccc4[nH]ccc4c3)oc12 [Example 38] | 0.1 to 1 µM
CC(=O)N1CCC(n2cc(-c3cnc(N)c4oc(C5CCCCC5)cc34)cn2)CC1 [Example 152] | 0.1 to 1 µM
